- system tested: RUNX1 (UniProt Q01196)
- Sequence (Q01196 whole entry): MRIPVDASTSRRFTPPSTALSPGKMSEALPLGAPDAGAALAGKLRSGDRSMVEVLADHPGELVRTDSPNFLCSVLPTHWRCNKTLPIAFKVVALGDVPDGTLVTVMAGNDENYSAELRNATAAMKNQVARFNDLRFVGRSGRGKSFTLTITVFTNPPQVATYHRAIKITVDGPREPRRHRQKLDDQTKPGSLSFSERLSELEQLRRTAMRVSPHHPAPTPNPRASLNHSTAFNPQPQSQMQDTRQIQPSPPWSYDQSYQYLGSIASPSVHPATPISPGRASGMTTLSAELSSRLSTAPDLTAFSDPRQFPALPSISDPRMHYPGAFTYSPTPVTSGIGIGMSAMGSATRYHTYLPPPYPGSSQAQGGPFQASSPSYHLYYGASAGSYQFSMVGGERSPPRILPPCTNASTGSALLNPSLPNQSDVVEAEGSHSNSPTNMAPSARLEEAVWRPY
- measurement notes: RUNX1 binding intensity (PBM fluorescence), RUNX1 alone (arbitrary fluorescence units); higher = stronger binding;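 also: Full-length recombinant human RUNX1 bound to double-stranded 36-bp genomic probes on a high-density microarray, scored as Alexa488 fluorescence per spot via anti-RUNX1 antibody, median of four replicate spots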
- test settings: RUNX1 concentration 2 nM; ETS1 concentration 0 nM
// label = met if RUNX1 binding intensity is not less than 800, otherwise not met

Please tell me: is the sequence "CTGTGACACGTGCGGAAGCTGTGGTAAGTGCATCCA" at or over 800 in terms of RUNX1 binding intensity? met

Please tell me: is the sequence "CCAAGCACTTCCTGCTGTTAGCTTTGTGGGCTGAGT" at or over 800 in terms of RUNX1 binding intensity? met

Please tell me: is the sequence "GACACAAGAACAGCAGGATGTGGTCAGAGGCGTCGT" at or over 800 in terms of RUNX1 binding intensity? not met

Please tell me: is the sequence "AACCATTACAGGATGTGAGATTCAAACCACTAACAG" at or over 800 in terms of RUNX1 binding intensity? met

Please tell me: is the sequence "GTTCAGCGGACGGCTTCCTGCGGCTTGCTGGGGCCG" at or over 800 in terms of RUNX1 binding intensity? not met

Please tell me: is the sequence "TCTCCCGGAACTGCTCCTTCACCATGATGACCGCTG" at or over 800 in terms of RUNX1 binding intensity? met

Please tell me: is the sequence "CCTGCCTTCCGTCTTCCAGGCAGAACCACAGAGAGG" at or over 800 in terms of RUNX1 binding intensity? met

Please tell me: is the sequence "CACCTCGGGGGTTTCCGGTCCGTGGTTAGCTCCTTC" at or over 800 in terms of RUNX1 binding intensity? met

Please tell me: is the sequence "ACTGGCTTCACTTCCTCCGCGGTTCCTCGGAGCCGC" at or over 800 in terms of RUNX1 binding intensity? met
